Below is a list of entries, each paired with its recorded CLint scaled value.
# measurement notes: Intrinsic clearance in rat liver microsomes
# Format: ADME, Microsome
# setup conditions: read-out: CLH

[
  {
    "chemical structure": "O=C(Cn1nnc2ccccc21)N(Cc1cccc(Cl)c1)c1ccc(-c2cn[nH]c2)cc1",
    "CLint scaled / L/h/kg": 340
  },
  {
    "chemical structure": "O=C(Cc1cccnc1)N(Cc1cccc(Cl)c1)c1ccc(-c2cn[nH]c2)cc1",
    "CLint scaled / L/h/kg": 213
  },
  {
    "chemical structure": "O=C(Cn1nnc2ccccc21)N(Cc1cccc(Cl)c1)c1ccc(-c2c[nH]cn2)cc1",
    "CLint scaled / L/h/kg": 35.3
  },
  {
    "chemical structure": "O=C(Cc1cncnc1)N(Cc1cccc(Cl)c1)c1ccc(-c2cn[nH]c2)cc1",
    "CLint scaled / L/h/kg": 198
  }
]

----------
# measurement notes: Intrinsic clearance in human liver microsomes
# Format: ADME, Microsome
# setup conditions: read-out: CLH
Parameter CLint scaled: see the listing below.

[
  {
    "chemical structure": "O=C(Cc1cccnc1)N(Cc1cccc(Cl)c1)c1ccc(-c2cn[nH]c2)cc1",
    "CLint scaled / mL/min/kg": 981
  },
  {
    "chemical structure": "O=C(Cn1nnc2ccccc21)N(Cc1cccc(Cl)c1)c1ccc(-c2cn[nH]c2)cc1",
    "CLint scaled / mL/min/kg": 2620
  },
  {
    "chemical structure": "O=C(Cn1nnc2ccccc21)N(Cc1cccc(Cl)c1)c1ccc(-c2c[nH]cn2)cc1",
    "CLint scaled / mL/min/kg": 141
  },
  {
    "chemical structure": "O=C(Cc1cncnc1)N(Cc1cccc(Cl)c1)c1ccc(-c2cn[nH]c2)cc1",
    "CLint scaled / mL/min/kg": 620
  }
]

----------
# System: SARS-CoV-2
# measurement notes: Cytotoxicity against SARS CoV-2 infected Vero E6 cells assessed as reduction in cell viability
# Assay type: toxicity
# setup conditions: chlorocebus sabaeus, vero c1008
measured property: CC50

[
  {
    "chemical structure": "O=C(Cn1nnc2ccccc21)N(Cc1cccc(Cl)c1)c1ccc(-c2c[nH]cn2)cc1",
    "assay system": "SARS-CoV-2",
    "measured property": "CC50",
    "assay value": "> 50 µM"
  }
]
